Biological target: full-length human PKCι (Homo sapiens, UniProt P41743)
Construct: Recombinant, full-length human PKCι expressed in Sf21 insect cells is also commercially available; purchased EMD Millipore; host or cells: Sf21 insect cells (baculovirus)
Sequence (P41743 1-596): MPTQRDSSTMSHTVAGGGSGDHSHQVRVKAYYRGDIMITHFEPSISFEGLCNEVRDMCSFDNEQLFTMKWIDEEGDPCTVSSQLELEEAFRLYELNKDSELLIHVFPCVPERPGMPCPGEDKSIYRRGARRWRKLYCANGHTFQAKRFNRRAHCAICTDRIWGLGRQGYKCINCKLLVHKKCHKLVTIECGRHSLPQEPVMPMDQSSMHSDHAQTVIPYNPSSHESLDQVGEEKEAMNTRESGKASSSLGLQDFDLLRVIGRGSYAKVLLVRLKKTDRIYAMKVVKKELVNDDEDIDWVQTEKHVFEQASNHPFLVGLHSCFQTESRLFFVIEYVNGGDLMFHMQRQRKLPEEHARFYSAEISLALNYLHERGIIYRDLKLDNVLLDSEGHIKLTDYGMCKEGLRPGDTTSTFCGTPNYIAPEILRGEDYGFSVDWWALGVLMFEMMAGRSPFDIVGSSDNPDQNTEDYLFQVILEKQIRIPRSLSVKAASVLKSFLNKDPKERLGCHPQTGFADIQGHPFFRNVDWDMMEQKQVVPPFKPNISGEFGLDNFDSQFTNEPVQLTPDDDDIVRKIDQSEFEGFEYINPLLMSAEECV
Assay: PKCι IC50 IMAP fluorescence polarisation assay, full-length enzyme, 150 μM ATP
Type: biochemical
Details: read-out: IC50 in IMAP assay against full length PKCi at 150 μM ATP
pIC50: −log10 of the molar value.
observationType: pIC50

Examples with their reported pIC50 follow.
* Fc1cccnc1-c1cc2c(-c3nc(N4CCOC5CNCC54)c4c(C5CCC5)cncc4n3)ccnc2[nH]1 (stereo not shown) [Example 259] | > 7.00
* CC1(C)CNCC[C@@H]1Nc1nc(-c2ccnc(Nc3ncccc3Cl)c2)nc2cncc(C3CC3)c12 [Example 339] | 6.00 to 7.00
* C[C@@H]1CNCC[C@@H]1Nc1nc(-c2ccnc(Nc3nc(F)cc(F)c3F)c2)nc2cncc(C3CC3)c12 (racemic) [Example 301] | > 7.00
* C[C@@H]1CNCC[C@H]1Nc1nc(-c2ccnc(Nc3ncc(F)cc3F)c2)nc2cncc(C3CC3)c12 (racemic) [Example 303] | > 7.00
* O[C@@H]1CCN(c2nc(-c3ccnc4[nH]c5ccccc5c34)nc3cncc(C4CCC4)c23)C1 [Example 252] | 5.00 to 6.00
* c1ccc(-n2cnc(Nc3cc(-c4nc(N5CCC6NCCCC65)c5c(C6CC6)cncc5n4)ccn3)n2)cc1 (stereo not shown) [Example 245] | > 7.00

Proceeding to the next compound to report its pIC50.
What reported pIC50 corresponds to NC(=O)C1CC(Nc2nc(-c3ccnc4[nH]c5ccccc5c34)nc3cncc(C4CCC4)c23)CC1N (stereo not shown) [Example 377] on full-length human PKCι (Homo sapiens, UniProt P41743)?
6.00 to 7.00

====

target: full-length human PKCι (Homo sapiens, UniProt P41743); construct: Recombinant, full-length human PKCι expressed in Sf21 insect cells is also commercially available; test: PKCι IC50 IMAP fluorescence polarisation assay, full-length enzyme, 150 μM ATP; conditions: read-out: IC50 in IMAP assay against full length PKCi at 150 μM ATP
observationType: IC50

See these solved cases before continuing.
• c1ccc(-n2cnc(Nc3cc(-c4nc(N5CCC6CNCCC65)c5c(C6CC6)cncc5n4)ccn3)n2)cc1 (stereo not drawn) = < 100 nM
• C[C@@H]1CNCC[C@H]1Nc1nc(-c2ccnc(Nc3ncccc3F)c2)nc2cncc(C3CCC3)c12 (single isomer, unassigned) [Example 341] = < 100 nM
• O[C@@H]1CNCC[C@H]1Nc1nc(-c2ccnc(Nc3ncccc3F)c2)nc2cncc(C3CCC3)c12 (racemic) = < 100 nM

Can you look up the measured IC50 of Cc1cc2c(-c3nc(N4CC[C@H]5NCCC[C@H]54)c4c(C5CC5)cncc4n3)ccnc2[nH]1 (racemic) for me?
< 100 nM

// same read-out, input: CC1(C)CNCC[C@H]1Nc1nc(-c2ccnc(Nc3nc(F)ccc3F)c2)nc2cncc(C3CC3)c12
100 to 1000 nM

// repeat for CC1(C)CNCC[C@@H]1Nc1nc(-c2ccnc3[nH]c(-c4ccccc4F)cc23)nc2cncc(C3CC3)c12 and report
< 100 nM

What do we get for CC1(C)CNCCC1Nc1nc(-c2ccnc(Nc3cc(F)ccn3)c2)nc2cncc(C3CC3)c12 (stereo not drawn) ?
< 100 nM

Please do the same for O[C@H]1CCN(c2nc(-c3ccnc4[nH]c5ccccc5c34)nc3cncc(C4CCC4)c23)C1 as well.
1000 to 10000 nM

The reported numbers originate from patent US10414763B2.
